Listed binders paired with reported Kd
- experimental.target: T1, c-erbB-2 ECD with a Ser-Gly-His6 C-terminal fusion (UniProt P04626 23-652)
- T1 construct: extracellular domain; Expressed from CHO cells, IMAC purified; coupled to a CM5 chip, coated on plates, or biotinylated with NHS-LC-biotin; also called c-erbB-2 extracellular domain; biotinylated c-erbB-2 ECD
- test.summary: SPR BIAcore
Record the value in nM, omitting the unit from your answer.

binder	Kd, nM
C6.5N100dA (scFv, C6.5 VH CDR3 scan mutant; Kabat numbering) scFv: QVQLLQSGAELKKPGESLKISCKGSGYSFTSYWIAWVRQMPGKGLEYMGLIYPGDSDTKYSPSFQGQVTISVDKSVSTAYLQWSSLKPSDSAVYFCARHDVGYCSSSACAKWPEYFQHWGQGTLVTVSSGGGGSGGGGSGGGGSQSVLTQPPSVSAAPGQKVTISCSGSSSNIGNNYVSWYQQLPGTAPKLLIYGHTNRPAGVPDRFSGSKSGTSASLAISGFRSEDEADYYCAAWDDSLSGWVFGGGTKLTVLG	29
C6.5D96A (scFv, C6.5 VH CDR3 scan mutant; Kabat numbering) scFv: QVQLLQSGAELKKPGESLKISCKGSGYSFTSYWIAWVRQMPGKGLEYMGLIYPGDSDTKYSPSFQGQVTISVDKSVSTAYLQWSSLKPSDSAVYFCARHAVGYCSSSNCAKWPEYFQHWGQGTLVTVSSGGGGSGGGGSGGGGSQSVLTQPPSVSAAPGQKVTISCSGSSSNIGNNYVSWYQQLPGTAPKLLIYGHTNRPAGVPDRFSGSKSGTSASLAISGFRSEDEADYYCAAWDDSLSGWVFGGGTKLTVLG	45

Turning to the following binder.
Query :: Item under review: C6.5H102A (scFv, C6.5 VH CDR3 scan mutant; Kabat numbering) scFv: QVQLLQSGAELKKPGESLKISCKGSGYSFTSYWIAWVRQMPGKGLEYMGLIYPGDSDTKYSPSFQGQVTISVDKSVSTAYLQWSSLKPSDSAVYFCARHDVGYCSSSNCAKWPEYFQAWGQGTLVTVSSGGGGSGGGGSGGGGSQSVLTQPPSVSAAPGQKVTISCSGSSSNIGNNYVSWYQQLPGTAPKLLIYGHTNRPAGVPDRFSGSKSGTSASLAISGFRSEDEADYYCAAWDDSLSGWVFGGGTKLTVLG . Reported Kd?
Result :: 19
